system: Escherichia coli; test: The compound was evaluated for the inhibition of [14C]- Pen G binding to Escherichia coli UB1005 penicillin-binding protein 1b 90 kDa.
readout-label: Inhibitory concentration

Answered cases to consult:
molecule: O=C(COc1ccccc1)N[C@@H]1C(=O)N2C(C(=O)O)=C(COC(=O)N3CCN(c4cc5c(cc4F)c(=O)c(C(=O)O)cn5C4CC4)CC3)CS[C@H]12
assay-system: Escherichia coli
readout-label: Inhibitory concentration
experimental-result: > 100 µg/mL
//
molecule: NC(=O)CO/N=C(\C(=O)N[C@@H]1C(=O)N2C(C(=O)O)=C(COC(=O)N3CCN(c4cc5c(cc4F)c(=O)c(C(=O)O)cn5C4CC4)CC3)CS[C@H]12)c1csc(N)n1
assay-system: Escherichia coli
readout-label: Inhibitory concentration
experimental-result: 10 µg/mL
//
molecule: CC(C)(O/N=C(\C(=O)N[C@@H]1C(=O)N2C(C(=O)O)=C(COC(=O)N3CCN(c4cc5c(cc4F)c(=O)c(C(=O)O)cn5C4CC4)CC3)CS[C@H]12)c1csc(N)n1)C(=O)O
assay-system: Escherichia coli
readout-label: Inhibitory concentration
experimental-result: 10 µg/mL
//
molecule: Nc1nc(/C(=N/OCC(=O)O)C(=O)N[C@@H]2C(=O)N3C(C(=O)O)=C(COC(=O)N4CCN(c5cc6c(cc5F)c(=O)c(C(=O)O)cn6C5CC5)CC4)CS[C@H]23)cs1
assay-system: Escherichia coli
readout-label: Inhibitory concentration
experimental-result: 10 µg/mL
//
molecule: CC(=O)OCC1=C(C(=O)O)N2C(=O)[C@@H](NC(=O)COc3ccccc3)[C@H]2SC1
assay-system: Escherichia coli
readout-label: Inhibitory concentration
experimental-result: 100 µg/mL

Q) Provide measured Inhibitory concentration value, entry: CCN1CCN(C(=O)NC(C(=O)N[C@@H]2C(=O)N3C(C(=O)O)=C(COC(=O)N4CCN(c5cc6c(cc5F)c(=O)c(C(=O)O)cn6C5CC5)CC4)CS[C@H]23)c2ccccc2)C(=O)C1=O (stereo partly specified)
A) 10 µg/mL

###

Entries and their MIC values follow.
tested on: Pseudomonas aeruginosa; experiment: The compound was tested in vitro for minimum inhibitory concentration against Pseudomonas aeruginosa 8780; assay type: functional
Answer format: numeric, µg/mL implied, no suffix.

Known results for molecules:
molecule: CCN1CCN(C(=O)NC(C(=O)N[C@@H]2C(=O)N3C(C(=O)O)=C(COC(=O)N4CCN(c5cc6c(cc5F)c(=O)c(C(=O)O)cn6C5CC5)CC4)CS[C@H]23)c2ccccc2)C(=O)C1=O (stereo partly specified)
MIC [µg/mL]: 2
--
molecule: O=CN[C@@H]1C(=O)N2C(C(=O)O)=C(COC(=O)N3CCN(c4cc5c(cc4F)c(=O)c(C(=O)O)cn5C4CC4)CC3)CS[C@H]12
MIC [µg/mL]: 2

Q) Return value of MIC for input "CO/N=C(\C(=O)N[C@@H]1C(=O)N2C(C(=O)O)=C(COC(=O)N3CCN(c4cc5c(cc4F)c(=O)c(C(=O)O)cn5C4CC4)CC3)CS[C@H]12)c1csc(N)n1" , no commentary.
A) 1

Q) For the molecule "O=C(COc1ccccc1)N[C@@H]1C(=O)N2C(C(=O)O)=C(COC(=O)N3CCN(c4cc5c(cc4F)c(=O)c(C(=O)O)cn5C4CC4)CC3)CS[C@H]12" , report MIC.
A) 1

Q) For the molecule "CC(C)(O/N=C(\C(=O)N[C@@H]1C(=O)N2C(C(=O)O)=C(COC(=O)N3CCN(c4cc5c(cc4F)c(=O)c(C(=O)O)cn5C4CC4)CC3)CS[C@H]12)c1csc(N)n1)C(=O)O" , give its reported MIC.
A) 1

###

tested on: Escherichia coli; assay: The compound was tested in vitro for minimum inhibitory concentration against Escherichia coli TEM-1; format: functional
MIC for assorted compounds
# output: bare number, implied unit µg/mL

compound: O=C(COc1ccccc1)N[C@@H]1C(=O)N2C(C(=O)O)=C(COC(=O)N3CCN(c4cc5c(cc4F)c(=O)c(C(=O)O)cn5C4CC4)CC3)CS[C@H]12
readout-label: MIC
experimental-result: 0.063

Q) Indicate the recorded MIC value for this compound: "Nc1nc(/C(=N/OCC(=O)O)C(=O)N[C@@H]2C(=O)N3C(C(=O)O)=C(COC(=O)N4CCN(c5cc6c(cc5F)c(=O)c(C(=O)O)cn6C5CC5)CC4)CS[C@H]23)cs1"
A) 0.063

Q) Specify reported MIC for the compound shown: "CC(C)(O/N=C(\C(=O)N[C@@H]1C(=O)N2C(C(=O)O)=C(COC(=O)N3CCN(c4cc5c(cc4F)c(=O)c(C(=O)O)cn5C4CC4)CC3)CS[C@H]12)c1csc(N)n1)C(=O)O"
A) 0.063

Q) Name the recorded MIC of the item "CC(=O)OCC1=C(C(=O)O)N2C(=O)[C@@H](NC(=O)COc3ccccc3)[C@H]2SC1" in your answer.
A) 128

Q) Please give the documented MIC of "O=CN[C@@H]1C(=O)N2C(C(=O)O)=C(COC(=O)N3CCN(c4cc5c(cc4F)c(=O)c(C(=O)O)cn5C4CC4)CC3)CS[C@H]12"
A) 0.063

Q) Entry CO/N=C(\C(=O)N[C@@H]1C(=O)N2C(C(=O)O)=C(COC(C)=O)CS[C@H]12)c1csc(N)n1 [CEFOTAXIME] needs its MIC filled in; supply it.
A) 0.063

Q) Return the recorded MIC value; entry: CCN1CCN(C(=O)NC(C(=O)N[C@@H]2C(=O)N3C(C(=O)O)=C(COC(=O)N4CCN(c5cc6c(cc5F)c(=O)c(C(=O)O)cn6C5CC5)CC4)CS[C@H]23)c2ccccc2)C(=O)C1=O (stereo partly specified)
A) 0.063

###

test system: Enterobacter cloacae; test: The compound was tested in vitro for minimum inhibitory concentration against Enterobacter cloacae P99; type: functional
MIC overview
Express the result in µg/mL but write the number alone.

smiles-string: Nc1nc(/C(=N/OCC(=O)O)C(=O)N[C@@H]2C(=O)N3C(C(=O)O)=C(COC(=O)N4CCN(c5cc6c(cc5F)c(=O)c(C(=O)O)cn6C5CC5)CC4)CS[C@H]23)cs1
readout-label: MIC
experimental-result: 0.063

Q) Give recorded MIC. "CC(C)(O/N=C(\C(=O)N[C@@H]1C(=O)N2C(C(=O)O)=C(COC(=O)N3CCN(c4cc5c(cc4F)c(=O)c(C(=O)O)cn5C4CC4)CC3)CS[C@H]12)c1csc(N)n1)C(=O)O"
A) 0.63

###

test system: Escherichia coli; experiment: The compound was tested in vitro for minimum inhibitory concentration against Escherichia coli ATCC 25922; type: functional
Here the recorded MIC is given for each entry.
Numbers only; they are read as µg/mL.

Illustrative cases are given below, each with its answer.
compound: Nc1nc(/C(=N/OCC(=O)O)C(=O)N[C@@H]2C(=O)N3C(C(=O)O)=C(COC(=O)N4CCN(c5cc6c(cc5F)c(=O)c(C(=O)O)cn6C5CC5)CC4)CS[C@H]23)cs1
experimental-result: 0.031

compound: CCN1CCN(C(=O)NC(C(=O)N[C@@H]2C(=O)N3C(C(=O)O)=C(COC(=O)N4CCN(c5cc6c(cc5F)c(=O)c(C(=O)O)cn6C5CC5)CC4)CS[C@H]23)c2ccccc2)C(=O)C1=O (stereo not given in full)
experimental-result: 0.063

Q) Given the compound O=C(O)C1=C(COC(=O)N2CCN(c3cc4c(cc3F)c(=O)c(C(=O)O)cn4C3CC3)CC2)CS[C@@H]2[C@H](NC(=O)C(O)c3ccccc3)C(=O)N12 (stereo not given in full) , write its reported MIC.
A) 0.031

Q) Return value of MIC for input "CO/N=C(\C(=O)N[C@@H]1C(=O)N2C(C(=O)O)=C(COC(C)=O)CS[C@H]12)c1csc(N)n1" , no commentary.
A) 0.063

Q) Consider the compound "NC(=O)CO/N=C(\C(=O)N[C@@H]1C(=O)N2C(C(=O)O)=C(COC(=O)N3CCN(c4cc5c(cc4F)c(=O)c(C(=O)O)cn5C4CC4)CC3)CS[C@H]12)c1csc(N)n1" . State its measured MIC.
A) 0.063

###

tested on: Escherichia coli; assay: The compound was evaluated for the inhibition of [14C]- Pen G binding to Escherichia coli UB1005 penicillin-binding protein 2 66 kDa.
Entries annotated with measured Inhibitory concentration
Please state the figure in µg/mL; there is no need to write the unit.

smiles-string: CO/N=C(\C(=O)N[C@@H]1C(=O)N2C(C(=O)O)=C(COC(C)=O)CS[C@H]12)c1csc(N)n1
readout-label: Inhibitory concentration
experimental-result: 100

Q) Return the recorded Inhibitory concentration value; entry: "NC(=O)CO/N=C(\C(=O)N[C@@H]1C(=O)N2C(C(=O)O)=C(COC(=O)N3CCN(c4cc5c(cc4F)c(=O)c(C(=O)O)cn5C4CC4)CC3)CS[C@H]12)c1csc(N)n1"
A) 100
